Entry source: paper PMC8623179

Tested on: Caco2
Assay Method Text: Cell survival assay, Caco2
Type: cell-based
Condition Set: Homo sapiens, Caco-2; read-out: IC50 Caco2
Protocol: Skin diploid fibroblastic cells were provided by BIOPREDIC International Company (Rennes, France). […] Cells were grown according to ECACC recommendations. The toxicity test of the compounds on these cells was as follows: 2 × 10^3 cells for HCT-116 cells or 4 × 10^3 for the other cells were seeded in 96-multi-well plates in triplicate and left for 24 h for attachment, spreading and growing. […] The IC50 were graphically determined.
Readout Type: IC50
Please answer in the form of a number followed by its unit of measurement.

For this molecule ( "O=C1NC(=S)S/C1=C\c1ccc2c(c1)CCO2" ), measured IC50 is 8 µM
